System: HCC78
assay_name: Antiproliferative activity against human HCC78 cells harboring SLC34A2-ROS1 after 72 hrs by MTT assay
Type: functional, cell-based
condition_parameters: HCC78, 72 h
pIC50: −log10 of the molar value.
The label depends only on pIC50: Y if it is at least 7, N if it is smaller.

[
  {
    "chemical_structure": "CCN(CC)c1ccc(Nc2ncc(Cl)c(Nc3ccccc3NS(C)(=O)=O)n2)c(OC)n1",
    "label_class": "N"
  },
  {
    "chemical_structure": "COc1nc(N2CCN(C)CC2)ccc1Nc1ncc(Cl)c(Nc2ccccc2NS(=O)(=O)C2CC2)n1",
    "label_class": "N"
  },
  {
    "chemical_structure": "COc1nc(N2CCCCC2)ccc1Nc1ncc(Cl)c(Nc2ccccc2NS(=O)(=O)C2CC2)n1",
    "label_class": "N"
  },
  {
    "chemical_structure": "CCN(CC)c1ccc(Nc2ncc(Cl)c(Nc3ccccc3NS(=O)(=O)C3CC3)n2)c(OC)n1",
    "label_class": "N"
  },
  {
    "chemical_structure": "COc1nc(N2CC(O)C2)ccc1Nc1ncc(Cl)c(Nc2ccccc2NS(C)(=O)=O)n1",
    "label_class": "Y"
  }
]
